Origin of measurements: paper PMC8809517

Assay system: T1, GFP-9S library array, motif 4 ND N98I;D124K (synthetic construct, N98I;D124K)
T1 chain: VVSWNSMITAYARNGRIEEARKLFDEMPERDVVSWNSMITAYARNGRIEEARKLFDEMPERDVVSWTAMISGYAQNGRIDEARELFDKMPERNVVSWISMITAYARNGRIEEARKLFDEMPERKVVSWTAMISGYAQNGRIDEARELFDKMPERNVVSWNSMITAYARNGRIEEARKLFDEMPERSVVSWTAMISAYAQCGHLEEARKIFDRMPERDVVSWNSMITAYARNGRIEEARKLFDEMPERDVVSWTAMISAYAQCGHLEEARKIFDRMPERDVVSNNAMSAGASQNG
Experiment summary: high-throughput RNA pulldown from lysate on Ni-NTA beads; HRP: 50 mM Tris pH 8, 150 mM NaCl, 1 mM beta-mercaptoethanol, 50 ug/ml BSA, 3 ug/ml yeast RNA, 0.5% heparin; ITC and FP: Tris pH 8, 200 mM KCl, 5% glycerol; MST: 50 mM Tris pH 8, 200 mM NaCl, 1 mM DTT, BSA, heparin, 0.05% Tween 20
Particulars: tags: N-terminal His-eGFP; label: 5' IRDye 800CW
Measure: pKd
Please treat pKd as minus the base-10 logarithm of the molar concentration.

AUUAUACGUGA (ssRNA) [IR-rpoA-U]; 6.74

Proceed to the following item.
Lab note: measured pKd of AUUAAACGUGA (ssRNA) [IR-rpoA-A] was 6.71
